Target: human CD33 L316A (human, UniProt P20138 18-364)
Sequence (P20138 18-364 L316A limits assumed): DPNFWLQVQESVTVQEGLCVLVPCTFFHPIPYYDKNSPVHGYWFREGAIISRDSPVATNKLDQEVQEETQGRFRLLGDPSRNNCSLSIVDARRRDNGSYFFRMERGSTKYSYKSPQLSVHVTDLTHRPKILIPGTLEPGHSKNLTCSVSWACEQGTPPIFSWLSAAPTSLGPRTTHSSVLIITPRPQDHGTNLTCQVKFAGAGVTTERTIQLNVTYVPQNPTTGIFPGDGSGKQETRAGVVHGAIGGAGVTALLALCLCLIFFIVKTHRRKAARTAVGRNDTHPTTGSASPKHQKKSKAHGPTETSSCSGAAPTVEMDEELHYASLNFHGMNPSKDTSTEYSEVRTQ
Experiment: alanine scan, flow cytometry, HEK293-T;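 note: antibody binding to each alanine-substituted CD33 mutant expressed transiently in HEK293-T, read as fluorescence minus background, mean of duplicates, relative to wild-type CD33 set as 100%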
Assay Metric: Mean % WT Binding (% WT binding)
Provide only the numeric value, understood in % WT binding.

Below are worked cases with known answers.
* Refmab #4 (antibody, V domains shown, The alanine scan used IgG or Fab) VH: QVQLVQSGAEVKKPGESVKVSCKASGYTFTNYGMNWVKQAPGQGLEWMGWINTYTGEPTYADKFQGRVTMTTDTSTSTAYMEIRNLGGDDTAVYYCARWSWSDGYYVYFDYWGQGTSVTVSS VL: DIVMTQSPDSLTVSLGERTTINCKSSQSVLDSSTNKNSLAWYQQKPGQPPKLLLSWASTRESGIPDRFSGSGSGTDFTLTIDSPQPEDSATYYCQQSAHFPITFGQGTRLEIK | 80
* Refmab #2 (antibody, V domains shown, The alanine scan used IgG or Fab) VH: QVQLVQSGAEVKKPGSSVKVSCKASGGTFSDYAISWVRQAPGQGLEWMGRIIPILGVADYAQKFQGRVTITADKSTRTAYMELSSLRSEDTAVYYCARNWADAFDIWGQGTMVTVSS VL: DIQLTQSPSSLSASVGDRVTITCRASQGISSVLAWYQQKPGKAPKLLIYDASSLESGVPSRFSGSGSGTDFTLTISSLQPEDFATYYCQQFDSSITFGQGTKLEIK | 104
* Refmab #3 (antibody, V domains shown, The alanine scan used IgG or Fab) VH: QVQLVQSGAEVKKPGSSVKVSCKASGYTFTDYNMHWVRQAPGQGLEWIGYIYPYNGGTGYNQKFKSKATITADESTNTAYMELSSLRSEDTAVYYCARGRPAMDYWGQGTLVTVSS VL: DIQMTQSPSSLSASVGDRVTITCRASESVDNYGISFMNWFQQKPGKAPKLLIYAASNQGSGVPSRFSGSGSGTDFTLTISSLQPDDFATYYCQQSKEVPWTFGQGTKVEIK | 90.4

Then there is this binder:
## Task Recorded Mean % WT Binding for Refmab #1 (antibody, V domains shown, The alanine scan used IgG or Fab; also called hP67.6) VH: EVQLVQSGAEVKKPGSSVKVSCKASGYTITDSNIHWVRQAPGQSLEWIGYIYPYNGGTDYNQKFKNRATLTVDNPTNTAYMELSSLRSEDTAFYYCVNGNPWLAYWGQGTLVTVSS VL: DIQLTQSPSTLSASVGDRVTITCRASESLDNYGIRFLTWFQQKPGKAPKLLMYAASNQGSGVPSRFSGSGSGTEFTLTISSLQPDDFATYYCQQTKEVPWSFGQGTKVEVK , please?
## Result 84.6
